Field: EC50. Provide a value for each of the binders that follow.
# assayed-system: T1, human CXCR2 (human, UniProt P25025 1-360)
# T1 construct: also called CXC chemokine receptor 2; hCXCR2
# T1 sequence: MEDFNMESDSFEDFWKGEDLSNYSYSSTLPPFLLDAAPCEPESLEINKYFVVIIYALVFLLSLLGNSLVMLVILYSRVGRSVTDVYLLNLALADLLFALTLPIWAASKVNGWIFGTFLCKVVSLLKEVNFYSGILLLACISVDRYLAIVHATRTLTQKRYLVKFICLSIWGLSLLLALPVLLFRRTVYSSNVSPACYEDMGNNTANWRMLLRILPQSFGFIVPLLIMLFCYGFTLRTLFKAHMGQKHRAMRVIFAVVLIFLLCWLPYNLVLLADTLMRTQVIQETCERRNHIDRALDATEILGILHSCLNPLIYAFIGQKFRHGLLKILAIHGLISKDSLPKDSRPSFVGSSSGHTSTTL
# assay: flow cytometry, CXCR2-transfected Expi293F cells
Field: numeric (nM). Do not append units.

# EC50 lookup, item BKO-4A8 combinatorial variant 5b (antibody, human IgG4 S228P, lambda, V domains shown, IgG4 S228P, lambda) VH: EVQLLESGGGLVQPGGSLRLSCAASGFTFSSSTQSWVRQPPGKGLEWVSAISGRGRSTYYADSVKGRFTISRDNSKNTLYLQMNSLRAEDTAVYYCAIQKGYWGQGILVTVSS VL: QSALTQPPSASGSPGQSVTISCIGTSSDVGGYNYVSWYQQHPDKAPKLMIYEVSKRPSGVPDRFSGSKSGNTASLTVSGLQAEDEADYYCSSYAGSNNFGVFGGGTKLTVLG
0.4

Thanks! And BKO-4A8 combinatorial variant 1b (antibody, human IgG4 S228P, lambda, V domains shown, IgG4 S228P, lambda) VH: EVQLLESGGGLVQPGGSLRLSCAASGFTFSSSTQSWVRQAPGKGLEWVSAISGRGRSTYYADSVKGRFTISRDNSRNTLYLQMNSLRAEDTAVYYCAIQMGYWGQGILVTVSS VL: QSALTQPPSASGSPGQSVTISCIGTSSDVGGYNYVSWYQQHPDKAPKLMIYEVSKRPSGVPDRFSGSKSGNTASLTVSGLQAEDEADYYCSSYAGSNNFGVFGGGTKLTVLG ?
0.3

Thanks! And BKO-4A8 combinatorial variant 5c (antibody, human IgG4 S228P, lambda, V domains shown, IgG4 S228P, lambda) VH: EVQLLESGGGLVQPGGSLRLSCAASGFTFSSSTQSWVRQPPGKGLEWVSAISGRGRSTYYADSVKGRFTISRDNSKNTLYLQMNSLRAEDTAVYYCAIQKGYWGQGILVTVSS VL: QSALTQPPSASGSPGQSVTISCIGTSSDVGGYNYVSWYQQHPGKAPKLMIYEVSKRPSGVPDRFSGSKSGNTASLTVSGLQAEDEADYYCSSYAGSNNFGVFGGGTKLTVLG ?
0.4

Thanks! And BKO-4A8 combinatorial variant 10b (antibody, human IgG4 S228P, lambda, V domains shown, IgG4 S228P, lambda) VH: EVQLLESGGGLVQPGGSLRLSCAASGFTFSSSTMSWVRQAPGKGLEWVSAISGRGRNTYYADSVKGRFTISRDNSRNTLYLQMNSLRAEDTAVYYCAKQKGYWGQGILVTVSS VL: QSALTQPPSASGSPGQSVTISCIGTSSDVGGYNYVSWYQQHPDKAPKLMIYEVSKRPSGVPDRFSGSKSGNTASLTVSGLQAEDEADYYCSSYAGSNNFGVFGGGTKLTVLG ?
0.3

Thanks! And BKO-4A8 combinatorial variant 6c (antibody, human IgG4 S228P, lambda, V domains shown, IgG4 S228P, lambda) VH: EVQLLESGGGLVQPGGSLRLSCAASGFTFSSSTQSWVRQPPGKGLEWVSAISGRGRSTYYADSVKGRFTISRDNSKNTLYLQMNSLRAEDTAVYYCAKQKGYWGQGILVTVSS VL: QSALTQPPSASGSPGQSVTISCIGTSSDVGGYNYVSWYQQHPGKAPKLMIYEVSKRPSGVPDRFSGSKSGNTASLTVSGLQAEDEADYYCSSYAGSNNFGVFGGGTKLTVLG ?
0.9

// data source = patent US20240301076A1
